Molecular target: EGFR bearing the L858R/T790M double mutation (Homo sapiens, UniProt P00533, L858R/T790M)
Sequence (P00533 25-1210 T790M/L858R): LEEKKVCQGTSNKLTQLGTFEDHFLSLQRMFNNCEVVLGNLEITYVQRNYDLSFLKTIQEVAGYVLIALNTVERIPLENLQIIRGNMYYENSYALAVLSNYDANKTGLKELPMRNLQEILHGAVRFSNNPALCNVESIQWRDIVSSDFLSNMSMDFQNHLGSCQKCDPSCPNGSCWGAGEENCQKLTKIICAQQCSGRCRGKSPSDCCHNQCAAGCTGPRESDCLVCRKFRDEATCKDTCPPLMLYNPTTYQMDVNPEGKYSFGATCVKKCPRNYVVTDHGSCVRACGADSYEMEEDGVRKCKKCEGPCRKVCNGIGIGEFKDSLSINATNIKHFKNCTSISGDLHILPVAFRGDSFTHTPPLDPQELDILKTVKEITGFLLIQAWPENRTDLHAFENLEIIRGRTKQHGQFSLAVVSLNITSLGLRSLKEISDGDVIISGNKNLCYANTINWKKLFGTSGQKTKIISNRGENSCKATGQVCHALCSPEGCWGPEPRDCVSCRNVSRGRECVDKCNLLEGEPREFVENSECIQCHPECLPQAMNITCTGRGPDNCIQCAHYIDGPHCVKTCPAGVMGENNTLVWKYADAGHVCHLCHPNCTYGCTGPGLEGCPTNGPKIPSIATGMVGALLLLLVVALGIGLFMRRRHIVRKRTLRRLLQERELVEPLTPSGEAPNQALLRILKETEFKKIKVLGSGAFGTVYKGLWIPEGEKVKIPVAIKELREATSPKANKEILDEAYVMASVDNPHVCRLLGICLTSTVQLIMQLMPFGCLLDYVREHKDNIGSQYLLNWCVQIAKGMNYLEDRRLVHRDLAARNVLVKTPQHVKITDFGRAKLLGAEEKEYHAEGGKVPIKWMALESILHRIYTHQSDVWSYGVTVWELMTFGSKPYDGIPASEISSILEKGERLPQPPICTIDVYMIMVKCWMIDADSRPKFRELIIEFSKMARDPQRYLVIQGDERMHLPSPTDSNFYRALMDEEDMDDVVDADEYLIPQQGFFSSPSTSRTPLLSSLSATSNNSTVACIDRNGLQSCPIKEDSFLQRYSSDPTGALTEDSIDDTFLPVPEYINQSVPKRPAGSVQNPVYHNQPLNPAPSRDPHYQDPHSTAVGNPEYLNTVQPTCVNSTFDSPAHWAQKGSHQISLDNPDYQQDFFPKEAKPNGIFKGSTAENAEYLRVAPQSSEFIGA
Test: Kinase inhibition, EGFR L858R/T790M
Assay type: biochemical
Conditions: 10 μM ATP; 10 pt curves, 3 μM top concentration (singlicates)
Parameter: IC50. Scope: all listed entries.

Solved entries:
Task: Provide measured IC50 value, entry: `C=CC(=O)Nc1ccc(OCC)c(Nc2ncc(Cl)c(Nc3ccccc3P(C)(C)=O)n2)c1`
Result: < 51 nM

Task: Dear colleague, please send me the reported IC50 for `C=CC(=O)N(CCCN(C)C)c1ccc(OC)c(Nc2ncc(Cl)c(Nc3ccccc3P(C)(C)=O)n2)c1` when you can.
Result: 51 to 100 nM

Task: Consider the molecule C=CC(=O)Nc1cc(Nc2ncc(Cl)c(Nc3ccccc3P(C)(C)=O)n2)c(OC)cc1OC(COC)CN(C)C (stereo not drawn) and give its recorded IC50.
Result: < 51 nM

Task: Provide only the value of recorded IC50 for `C=CC(=O)Nc1ccc(Nc2ncc(Cl)c(Nc3ccccc3P(C)(C)=O)n2)c(OC)c1`
Result: ≥ 250 nM

Next:
Task: Identify measured IC50 associated with `C=CC(=O)Nc1cc(Nc2ncc(Cl)c(Nc3ccccc3P(=O)(CC)CC)n2)c(OC)cc1OCCN(C)C`
Result: < 51 nM

====

The reader will find reported IC50 values listed item by item below.
Biological target: EGFR bearing the L858R mution (Homo sapiens, UniProt P00533, L858R)
Sequence (P00533 25-1210 L858R): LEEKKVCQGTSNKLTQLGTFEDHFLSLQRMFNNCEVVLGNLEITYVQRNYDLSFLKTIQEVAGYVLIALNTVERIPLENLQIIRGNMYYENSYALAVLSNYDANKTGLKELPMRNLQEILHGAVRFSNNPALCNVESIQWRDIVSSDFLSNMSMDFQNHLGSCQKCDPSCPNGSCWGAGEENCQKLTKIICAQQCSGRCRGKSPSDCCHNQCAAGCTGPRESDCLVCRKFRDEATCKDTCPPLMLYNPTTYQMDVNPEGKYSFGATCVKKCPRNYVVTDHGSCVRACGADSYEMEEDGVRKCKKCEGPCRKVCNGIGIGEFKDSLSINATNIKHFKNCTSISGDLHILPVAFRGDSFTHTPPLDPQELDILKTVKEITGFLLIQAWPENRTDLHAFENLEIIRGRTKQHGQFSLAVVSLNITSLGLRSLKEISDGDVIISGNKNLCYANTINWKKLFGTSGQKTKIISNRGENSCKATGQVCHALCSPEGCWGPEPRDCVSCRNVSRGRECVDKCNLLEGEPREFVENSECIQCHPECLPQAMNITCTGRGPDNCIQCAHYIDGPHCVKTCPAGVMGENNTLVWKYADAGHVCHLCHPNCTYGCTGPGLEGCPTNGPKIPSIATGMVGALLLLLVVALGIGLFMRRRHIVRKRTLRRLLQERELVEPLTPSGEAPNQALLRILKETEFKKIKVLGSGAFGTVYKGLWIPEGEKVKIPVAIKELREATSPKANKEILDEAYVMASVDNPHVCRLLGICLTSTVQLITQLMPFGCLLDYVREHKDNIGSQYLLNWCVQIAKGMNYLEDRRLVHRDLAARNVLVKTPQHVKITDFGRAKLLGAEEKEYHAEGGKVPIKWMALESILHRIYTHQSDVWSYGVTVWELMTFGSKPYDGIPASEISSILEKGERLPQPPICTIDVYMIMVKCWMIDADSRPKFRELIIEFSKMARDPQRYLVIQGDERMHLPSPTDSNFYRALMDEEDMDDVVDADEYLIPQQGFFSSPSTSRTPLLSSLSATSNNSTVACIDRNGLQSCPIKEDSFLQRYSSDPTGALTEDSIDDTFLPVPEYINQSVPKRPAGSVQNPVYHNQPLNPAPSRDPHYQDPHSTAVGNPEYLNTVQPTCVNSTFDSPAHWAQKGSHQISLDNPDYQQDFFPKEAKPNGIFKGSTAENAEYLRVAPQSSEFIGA
Experiment: Kinase inhibition, EGFR L858R
Format: biochemical
Settings: 10 μM ATP; 10 pt curves, 3 μM top concentration (singlicates)

Task: Look up and state reported IC50 for C=CC(=O)Nc1cc(Nc2ncc(Cl)c(Nc3ccccc3P(C)(C)=O)n2)c(OC)cc1N(C)CCCN(C)C [Example 34]
Result: 101 to 250 nM

Task: Report IC50 for C=CC(=O)Nc1ccc(OC)c(Nc2nc(Nc3ccccc3P(C)(C)=O)c3c(F)c[nH]c3n2)c1 [Example 23]
Result: ≥ 250 nM

Task: Give IC50 for COc1cc(N2CCOCC2)c(NC(=O)C2CO2)cc1Nc1ncc(Cl)c(Nc2ccccc2P(C)(C)=O)n1 (stereo not shown) [Example 59]
Result: < 51 nM

---
Task: Dear colleague, please send me the reported IC50 for C=CC(=O)N(C)c1ccc(OC)c(Nc2ncc(Cl)c(Nc3ccccc3P(C)(C)=O)n2)c1 [Example 44] when you can.
Result: < 51 nM

====

Molecular target: EGFR bearing the L858R mution (Homo sapiens, UniProt P00533, L858R)
Test: Kinase inhibition, EGFR L858R
Assay type: biochemical
Settings: 10 μM ATP; 10 pt curves, 3 μM top concentration (singlicates)
Measured Property: IC50

Use these answered entries as a reference point.
Task: Supply measured IC50 of `C=CC(=O)Nc1cc(Nc2ncc(Cl)c(Nc3ccccc3P(C)(C)=O)n2)c(OC)cc1N(C)CCN(C)CCOC` in your reply.
Result: < 51 nM

Task: Quick one: give measured IC50 for `COc1ccc(NC(=O)C=C(C)C)cc1Nc1ncc(Cl)c(Nc2ccccc2P(C)(C)=O)n1`
Result: ≥ 250 nM

Others:
Task: Quick one: give measured IC50 for `C=CC(=O)Nc1cc(Nc2ncc(Cl)c(Nc3ccccc3P(C)(C)=O)n2)c(OC)cc1CCN(CC)CC`
Result: < 51 nM
